System: PPARg homodimer (NR concentration 180 nM)
Assay: PBM binding z-score (relative to random genomic background probes); higher = stronger binding; sequences stand for … in GC…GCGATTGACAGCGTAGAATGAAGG
Could you label it yes (1) if measured PBM binding z-score is 1 or higher, and no (0) otherwise?

[[record]]
sequence_code = "CCTGCTAGGTCATGGTCATCTAATCTACAGTATG"
target_or_test_system = "PPARg homodimer (NR concentration 180 nM)"
category_label = "yes (1)"

[[record]]
sequence_code = "ATATGTAGCTTACATCCGGGTCATTCAGGCTATG"
target_or_test_system = "PPARg homodimer (NR concentration 180 nM)"
category_label = "no (0)"

[[record]]
sequence_code = "AATACAGGTTCATCGTAGGCCAGAGTACGCACAG"
target_or_test_system = "PPARg homodimer (NR concentration 180 nM)"
category_label = "no (0)"

[[record]]
sequence_code = "AGTCAAAGTTCACTGGGTAACGTAAGATTCAGCT"
target_or_test_system = "PPARg homodimer (NR concentration 180 nM)"
category_label = "yes (1)"


Q. Kindly determine if PBM binding z-score recorded for ACTTACAGGTCAACGAGGTTATAGCACGCGTATA is above or exactly 1.
A. yes (1)

Q. Quick one: TCGAGTAGGTTAGTCGGGGCTTTCAGCCAACATA
A. no (0)

Q. Quick one: AGTCAAAGTGCAGGACGAGGTAACGTAAAGCACG
A. no (0)

Q. Quick one: TAGCCTAGGTCATGCGGGCGAGTATAGTGTCGGC
A. no (0)

Q. Quick one: GCTGCTAGGTCAACTGATGGACAGCTAAAGCTCG
A. no (0)

Q. Quick one: TAGCCTAGGTCATTGGGACAGTATAGTACGCATC
A. yes (1)
